B1: CPEB3 Ribozyme (parent)
chain: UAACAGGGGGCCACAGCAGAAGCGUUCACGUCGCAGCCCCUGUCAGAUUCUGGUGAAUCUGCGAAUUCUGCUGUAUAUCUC

Variants of: B1
ASSAY_PROCEDURE: self-cleavage, relative activity (ratio to wild type); higher = more cleavage; in vitro, sequencing
Classify as follows. Reported self-cleavage greater than or equal to 0.3: Met. Reported self-cleavage below: Not met.

Ask | I'd appreciate it if you could say whether U58C C68A has self-cleavage at least equal to 0.3.
Reply | Not met

Ask | Same again, this time with C11U A15G
Reply | Met

Ask | Next: A57G U67G
Reply | Met

Ask | Check A28U U48C too.
Reply | Met

Ask | Next record, please: A3G C11A
Reply | Met

Ask | How about this variant: A3G G46A
Reply | Not met

Ask | Moving on to the next variant: U67C U78A
Reply | Not met

Ask | Next variant: A47U U48C
Reply | Not met

Ask | Cool, now G7A U49C
Reply | Not met

Ask | What about C44U U76A ?
Reply | Not met

Ask | Input A3U A56G
Reply | Met

Ask | What about A5U A20C ?
Reply | Met

Ask | Also, U26C G42A please.
Reply | Met

Ask | Same again, this time with G10U U74C
Reply | Met

Ask | Now this one: G63C U78A
Reply | Met

Ask | // repeat for C37A A45C and report
Reply | Not met

Ask | Note, next up: C79U U80A
Reply | Met

Ask | What would you report for U1A U76C ?
Reply | Met

Ask | Would you mind doing G61U U67C as well?
Reply | Not met

Ask | Do the same for U78C U80G please
Reply | Met

Ask | How about this variant: U66G
Reply | Met

Ask | Param item: A35G U43A
Reply | Met

Ask | And then G7U U51C , what is it?
Reply | Not met

Ask | Another variant: A3G U72A
Reply | Met

Ask | Could you do the same for U26A U51G , please?
Reply | Met

Ask | Now the variant G6A C29U
Reply | Not met

Ask | Now consider G6A C59A .
Reply | Not met

Ask | Now try A28C A56U .
Reply | Not met

Ask | Subsequent entry: G55A U78C
Reply | Met

Ask | Same for G24A U58C
Reply | Not met

Ask | Please give the result for U51G A77U too.
Reply | Met

Ask | Continue with C34A U80G
Reply | Met

Ask | Record: C79G U80C
Reply | Not met

Ask | Entry A20G U72G please
Reply | Met

Ask | Would you kindly repeat that for U26C A56G ?
Reply | Met

Ask | Then what about the variant G33A U48G ?
Reply | Not met

Ask | Now consider U49C U74C .
Reply | Met

Ask | Same again, this time with A3U U49C
Reply | Met

Ask | Likewise for A47C A64U ?
Reply | Met

Ask | Please do the same for A13G C38G as well.
Reply | Not met

Ask | Also A2G G30U , if possible.
Reply | Met

Ask | Also, A35G U54G please.
Reply | Met

Ask | What about this variant? A28G U76C
Reply | Met

Cited source for all entries: the RNAGym collection of RNA variant scans (doi:10.1093/nar/gkz1192)
